# Test system: MDA-MB-468 breast
# assay method text: NCI-60 one-dose screen, 48 h (100 = growth as untreated, 0 = no growth, -100 = all killed)
# applied conditions: 10 µM
Compounds without any hit were thinned out: in the full panel of roughly 83,000, 20% have a hit.
Recorded growth determines the group label, using low value = under -20%, medium value = from -20% up to 70%, high value = 70% and over

[[record]]
entry_smiles = "O=c1c2ccccc2nc(COc2ccccc2)n1/N=C/c1ccc(N2CCOCC2)cc1"
label = "high value"

[[record]]
entry_smiles = "O=C(/C=C/Nc1ccc(F)cc1F)c1ccc2c(c1)Nc1ccccc1S2"
label = "medium value"

[[record]]
entry_smiles = "N#C/C(=C\\c1ccc(N(c2ccccc2)c2ccccc2)cc1)C(N)=O"
label = "low value"

[[record]]
entry_smiles = "COc1cc2c(cc1OC)/C(=C\\c1sc(Nc3ccc(O)cc3)nc1O)C(C(=O)O)=N2"
label = "medium value"

[[record]]
entry_smiles = "Cn1cc(-c2cc(N)n3nc(-c4c[nH]c5ccc(Br)cc45)cc3n2)c2cc(Br)cnc21"
label = "low value"

[[record]]
entry_smiles = "O=C(CSc1nnc(-c2c[nH]c3ccccc23)n1-c1ccccc1)Nc1ccc(C(=O)/C=C/c2cccc([N+](=O)[O-])c2)cc1"
label = "high value"

[[record]]
entry_smiles = "COc1ccc(CN2[C@@H](C(=O)NCc3ccc(C(=O)NO)cc3)Cc3c([nH]c4ccccc34)[C@@H]2C2CC2)cc1"
label = "medium value"

